# study_system: human α5β3γ2 GABAARs in mouse L(tk−) cells (Homo sapiens, UniProt P18507+P31644)
# Construct: expressed in transfected cells; host or cells: mouse L(tk−) cells, dexamethasone-inducible vector pMSGneo
# Sequence (P31644 32-462): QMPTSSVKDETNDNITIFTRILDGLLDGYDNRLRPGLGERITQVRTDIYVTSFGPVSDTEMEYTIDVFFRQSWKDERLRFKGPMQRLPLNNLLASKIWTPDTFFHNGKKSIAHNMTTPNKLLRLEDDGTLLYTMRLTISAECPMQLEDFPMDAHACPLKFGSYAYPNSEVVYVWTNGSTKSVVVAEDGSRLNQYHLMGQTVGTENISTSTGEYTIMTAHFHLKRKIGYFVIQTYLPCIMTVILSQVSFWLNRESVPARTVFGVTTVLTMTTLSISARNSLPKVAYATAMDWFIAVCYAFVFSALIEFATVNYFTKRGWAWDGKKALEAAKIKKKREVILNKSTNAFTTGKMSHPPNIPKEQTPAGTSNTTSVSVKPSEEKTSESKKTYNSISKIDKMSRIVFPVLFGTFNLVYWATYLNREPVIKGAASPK
# Sequence (P28472 26-473 partner): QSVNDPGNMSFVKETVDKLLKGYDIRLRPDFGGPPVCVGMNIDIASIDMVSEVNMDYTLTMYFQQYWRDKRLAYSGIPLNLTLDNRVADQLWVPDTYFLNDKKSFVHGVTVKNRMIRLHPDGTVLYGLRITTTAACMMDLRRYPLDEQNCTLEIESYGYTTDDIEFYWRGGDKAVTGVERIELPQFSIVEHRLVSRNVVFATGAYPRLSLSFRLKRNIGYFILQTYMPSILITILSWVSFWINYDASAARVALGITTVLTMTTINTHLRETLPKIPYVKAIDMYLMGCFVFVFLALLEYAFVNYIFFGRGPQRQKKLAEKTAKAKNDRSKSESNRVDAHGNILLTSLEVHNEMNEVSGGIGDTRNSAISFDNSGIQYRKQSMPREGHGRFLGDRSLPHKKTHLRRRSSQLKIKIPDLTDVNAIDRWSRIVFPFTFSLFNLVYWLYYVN
# Sequence (P18507 40-475): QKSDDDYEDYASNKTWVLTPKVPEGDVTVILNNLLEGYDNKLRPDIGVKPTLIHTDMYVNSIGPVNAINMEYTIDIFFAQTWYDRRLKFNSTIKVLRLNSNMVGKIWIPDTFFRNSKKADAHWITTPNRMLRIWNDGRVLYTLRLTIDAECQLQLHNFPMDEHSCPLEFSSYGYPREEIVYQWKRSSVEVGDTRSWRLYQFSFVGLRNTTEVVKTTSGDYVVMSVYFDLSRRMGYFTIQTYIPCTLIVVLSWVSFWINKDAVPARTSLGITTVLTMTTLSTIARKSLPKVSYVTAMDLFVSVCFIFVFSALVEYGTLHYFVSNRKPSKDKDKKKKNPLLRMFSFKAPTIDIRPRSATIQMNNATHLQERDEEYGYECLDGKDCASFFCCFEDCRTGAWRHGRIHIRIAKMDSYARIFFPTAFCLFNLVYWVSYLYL
# protocol_description: In vitro electrophysiological recording assay (α5-GABAAR relative efficacy), QPatch
# Assay type: cell-based
# condition_set: Conc 1 μM; GABA EC10-20
# Text: Mouse L(tk^−) cells stably expressing human α1β3γ2, α2β3γ2, α3β3γ2, α5β3γ2 GABAARs generated by transfection of the individual subunits in the dexamethasone-inducible expression vector pMSGneo in mouse L(tk^−) cells (Hadingham et al., 1993, Mol. Pharmacol. 43:970-975 and 1993, Mol. Pharmacol. 44:1211-1218) were used for binding and functional assays. […]
measurement_label: α5-GABAAR Relative Efficacy (to DMCM), Qpatch
# respond with the number and nothing more

Exam item: What value of α5-GABAAR Relative Efficacy (to DMCM), Qpatch on human α5β3γ2 GABAARs in mouse L(tk−) cells (Homo sapiens, UniProt P18507+P31644) does COc1nc(-n2ccnc2)ncc1NC(=O)c1c(-c2ccccc2)noc1C have?
Marked response: −0.69

Exam item: What value of α5-GABAAR Relative Efficacy (to DMCM), Qpatch on human α5β3γ2 GABAARs in mouse L(tk−) cells (Homo sapiens, UniProt P18507+P31644) does COc1nc(-n2ccnc2)cnc1NC(=O)c1c(-c2ccccc2)noc1C have?
Marked response: −0.69

Exam item: What value of α5-GABAAR Relative Efficacy (to DMCM), Qpatch on human α5β3γ2 GABAARs in mouse L(tk−) cells (Homo sapiens, UniProt P18507+P31644) does COc1nc(-n2cncn2)ccc1NC(=O)c1c(-c2ccccc2)noc1C have?
Marked response: −0.69

Exam item: What value of α5-GABAAR Relative Efficacy (to DMCM), Qpatch on human α5β3γ2 GABAARs in mouse L(tk−) cells (Homo sapiens, UniProt P18507+P31644) does COc1nc(-c2ccc(N3CC[C@@H](O)C3)nc2)ccc1NC(=O)c1c(-c2ccccc2)noc1C have?
Marked response: −0.70

Exam item: What value of α5-GABAAR Relative Efficacy (to DMCM), Qpatch on human α5β3γ2 GABAARs in mouse L(tk−) cells (Homo sapiens, UniProt P18507+P31644) does COc1nc(-c2cn[nH]c2)ccc1NC(=O)c1c(-c2ccccc2)noc1C have?
Marked response: −0.68

Exam item: What value of α5-GABAAR Relative Efficacy (to DMCM), Qpatch on human α5β3γ2 GABAARs in mouse L(tk−) cells (Homo sapiens, UniProt P18507+P31644) does COc1nc(-c2cnn(C)c2)cnc1NC(=O)c1c(-c2ccccc2)noc1C have?
Marked response: −0.86

Exam item: What value of α5-GABAAR Relative Efficacy (to DMCM), Qpatch on human α5β3γ2 GABAARs in mouse L(tk−) cells (Homo sapiens, UniProt P18507+P31644) does COc1nc(-c2ccnc(N(C)C)c2)ccc1NC(=O)c1c(-c2ccccc2)noc1C have?
Marked response: −0.65

Exam item: What value of α5-GABAAR Relative Efficacy (to DMCM), Qpatch on human α5β3γ2 GABAARs in mouse L(tk−) cells (Homo sapiens, UniProt P18507+P31644) does COc1nc(-c2ccncc2N)ccc1NC(=O)c1c(-c2ccccc2)noc1C have?
Marked response: −0.65

Exam item: What value of α5-GABAAR Relative Efficacy (to DMCM), Qpatch on human α5β3γ2 GABAARs in mouse L(tk−) cells (Homo sapiens, UniProt P18507+P31644) does COc1cc(-n2ccnc2)ccc1NC(=O)c1c(-c2ccccc2)noc1C have?
Marked response: −0.54

Exam item: What value of α5-GABAAR Relative Efficacy (to DMCM), Qpatch on human α5β3γ2 GABAARs in mouse L(tk−) cells (Homo sapiens, UniProt P18507+P31644) does COc1nc(-c2ccc(NC(C)=O)nc2)ccc1NC(=O)c1c(-c2ccccc2)noc1C have?
Marked response: −0.81

Exam item: What value of α5-GABAAR Relative Efficacy (to DMCM), Qpatch on human α5β3γ2 GABAARs in mouse L(tk−) cells (Homo sapiens, UniProt P18507+P31644) does COc1nc(-c2cnoc2)cnc1NC(=O)c1c(-c2ccccc2)noc1C have?
Marked response: −0.73

Exam item: What value of α5-GABAAR Relative Efficacy (to DMCM), Qpatch on human α5β3γ2 GABAARs in mouse L(tk−) cells (Homo sapiens, UniProt P18507+P31644) does COc1nc(-c2cnoc2)ccc1NC(=O)c1c(-c2ccccc2)noc1C have?
Marked response: −0.66

Exam item: What value of α5-GABAAR Relative Efficacy (to DMCM), Qpatch on human α5β3γ2 GABAARs in mouse L(tk−) cells (Homo sapiens, UniProt P18507+P31644) does COc1nc(-c2cccc3nccn23)ccc1NC(=O)c1c(-c2ccccc2)noc1C have?
Marked response: −0.42

Exam item: What value of α5-GABAAR Relative Efficacy (to DMCM), Qpatch on human α5β3γ2 GABAARs in mouse L(tk−) cells (Homo sapiens, UniProt P18507+P31644) does COc1nc(-c2nccnc2N)ccc1NC(=O)c1c(-c2ccccc2)noc1C have?
Marked response: −0.55

Exam item: What value of α5-GABAAR Relative Efficacy (to DMCM), Qpatch on human α5β3γ2 GABAARs in mouse L(tk−) cells (Homo sapiens, UniProt P18507+P31644) does COc1nc(-c2cncnc2OC)ccc1NC(=O)c1c(-c2ccccc2)noc1C have?
Marked response: −0.73

Exam item: What value of α5-GABAAR Relative Efficacy (to DMCM), Qpatch on human α5β3γ2 GABAARs in mouse L(tk−) cells (Homo sapiens, UniProt P18507+P31644) does COc1nc(-c2cnc3ncccn23)ccc1NC(=O)c1c(-c2ccccc2)noc1C have?
Marked response: −0.60

Exam item: What value of α5-GABAAR Relative Efficacy (to DMCM), Qpatch on human α5β3γ2 GABAARs in mouse L(tk−) cells (Homo sapiens, UniProt P18507+P31644) does COc1nc(-c2cncc(-n3cccn3)c2)ccc1NC(=O)c1c(-c2ccccc2)noc1C have?
Marked response: −0.58

Exam item: What value of α5-GABAAR Relative Efficacy (to DMCM), Qpatch on human α5β3γ2 GABAARs in mouse L(tk−) cells (Homo sapiens, UniProt P18507+P31644) does COc1nc(-c2cc(C)nc(N)c2)ccc1NC(=O)c1c(-c2ccccc2)noc1C have?
Marked response: −1.26

Exam item: What value of α5-GABAAR Relative Efficacy (to DMCM), Qpatch on human α5β3γ2 GABAARs in mouse L(tk−) cells (Homo sapiens, UniProt P18507+P31644) does COc1nc(-c2cncn2C)ccc1NC(=O)c1c(-c2ccccc2)noc1C have?
Marked response: −0.52

Exam item: What value of α5-GABAAR Relative Efficacy (to DMCM), Qpatch on human α5β3γ2 GABAARs in mouse L(tk−) cells (Homo sapiens, UniProt P18507+P31644) does CNCc1ncc(-c2cnc(NC(=O)c3c(-c4ccccc4)noc3C)c(OC)n2)cn1.Cl have?
Marked response: −0.88

Exam item: What value of α5-GABAAR Relative Efficacy (to DMCM), Qpatch on human α5β3γ2 GABAARs in mouse L(tk−) cells (Homo sapiens, UniProt P18507+P31644) does COc1nc(-c2cccc3nc(N)nn23)ccc1NC(=O)c1c(-c2ccccc2)noc1C have?
Marked response: −0.74

Exam item: What value of α5-GABAAR Relative Efficacy (to DMCM), Qpatch on human α5β3γ2 GABAARs in mouse L(tk−) cells (Homo sapiens, UniProt P18507+P31644) does COc1nc(-c2cnc(CN)nc2)ccc1NC(=O)c1c(-c2ccccc2)nnn1C.Cl have?
Marked response: −0.63

Exam item: What value of α5-GABAAR Relative Efficacy (to DMCM), Qpatch on human α5β3γ2 GABAARs in mouse L(tk−) cells (Homo sapiens, UniProt P18507+P31644) does COc1nc(-c2cnc(N)cn2)ccc1NC(=O)c1c(-c2ccccc2)noc1C.Cl have?
Marked response: −0.92

Exam item: What value of α5-GABAAR Relative Efficacy (to DMCM), Qpatch on human α5β3γ2 GABAARs in mouse L(tk−) cells (Homo sapiens, UniProt P18507+P31644) does COc1nc(-n2ccnc2)ccc1NC(=O)c1c(-c2ccccc2)noc1C have?
Marked response: −0.91
